Data provenance: the NIST ThermoML archive (doi:10.1021/je900311v)

# COND: 298.15 K; 101.33 kPa; Liquid
READOUT NAME: mass density (kg/m3)

[
  {
    "COMPOUND": "CCCCCCCCCCCC [dodecane]",
    "mass density [kg/m3]": 745.28
  },
  {
    "COMPOUND": "CCCCCCCCCCCCCC [tetradecane]",
    "mass density [kg/m3]": 760.2
  },
  {
    "COMPOUND": "CCCCCC(=O)CC [3-octanone]",
    "mass density [kg/m3]": 817.77
  },
  {
    "COMPOUND": "CCCCCCCCCCCCCCCC [hexadecane]",
    "mass density [kg/m3]": 770.31
  },
  {
    "COMPOUND": "CCCCCCC(C)=O [2-octanone]",
    "mass density [kg/m3]": 814.28
  }
]
